All values here come from ChEMBL document CHEMBL3885861.

Species on record: Rattus norvegicus
Experiment: Open TG-GATES - Regimen: Single
Assay type: toxicity, organism-based, Sprague-Dawley
Set-up: regimen Single, gender Male, age 6 weeks
Conditions: in vivo, po, 0 mg/kg, 3 h, tissue Plasma, route gavage, dose level Control
Class Condition met: AST at least 80 IU/L. Class Condition not met: AST below 80 IU/L.

API: above_or_equal(metric=AST, cutoff=80 IU/L) for item COC1=CC(=O)C[C@@H](C)[C@]12Oc1c(Cl)c(OC)cc(OC)c1C2=O [GRISEOFULVIN]
Condition not met

Others:
API: above_or_equal(metric=AST, cutoff=80 IU/L) for item CCCNC(=O)NS(=O)(=O)c1ccc(Cl)cc1 [CHLORPROPAMIDE]
Condition not met

API: above_or_equal(metric=AST, cutoff=80 IU/L) for item O=C(CCCN1CCC(O)(c2ccc(Cl)cc2)CC1)c1ccc(F)cc1 [HALOPERIDOL]
Condition not met

API: above_or_equal(metric=AST, cutoff=80 IU/L) for item CN(C)CCCN1c2ccccc2CCc2ccccc21 [IMIPRAMINE]
Condition met

API: above_or_equal(metric=AST, cutoff=80 IU/L) for item COc1ccc2[nH]c([S+]([O-])Cc3ncc(C)c(OC)c3C)nc2c1 (stereo not drawn) [OMEPRAZOLE]
Condition not met

API: above_or_equal(metric=AST, cutoff=80 IU/L) for item NC(N)=Nc1nc(CSCCC(N)=NS(N)(=O)=O)cs1 [FAMOTIDINE]
Condition not met

API: above_or_equal(metric=AST, cutoff=80 IU/L) for item CCOc1ccc(NC(=O)CC(C)O)cc1 (stereo not drawn) [BUCETIN]
Condition not met

API: above_or_equal(metric=AST, cutoff=80 IU/L) for item CC1=C(/C=C/C(C)=C/C=C/C(C)=C/CO)C(C)(C)CCC1 [RETINOL]
Condition met
